Test: NCI Yeast Anticancer Drug Screen. Data for the mlh1 rad18 strain (AID 175)
Conditions: S. cerevisiae mlh1 rad18 strain growth inhibition; at 50.0 µM
The panel holds about 79,000 compounds, 15% with a hit somewhere; the sample as a whole holds those more often. Active and inactive are the calls of the source. Rule as the data show it: active = growth inhibition above about 70%; inactive = the rest.
Please answer using one outcome listed in active, inactive

Compound | Category Label
COc1cccc(CC2N(S(=O)(=O)c3ccc(C)cc3)CCC23C(=O)Nc2ccccc23)c1OC (configuration not stated) | active

// outcome(item) with item = N[C@H](C(=O)O)[C@@H]1CC(Cl)=NO1 active

// outcome(item) with item = S=C(NCCNC(=S)[S][Sn]([c]1ccccc1)([c]1ccccc1)[c]1ccccc1)[S][Sn]([c]1ccccc1)([c]1ccccc1)[c]1ccccc1 active

// outcome(item) with item = Cc1ccc(S(=O)(=O)Nc2ccc3c(c2)C(=O)c2ccccc2-3)cc1 active

// outcome(item) with item = CCOC(=O)C(C)(c1c(C)[nH]c2ccccc12)c1c(C)[nH]c2ccccc12 active

// outcome(item) with item = CC(C)(C)c1ccc(O)c(C2CCCCC2)c1 active

// outcome(item) with item = N/N=C(\N)c1ccc2ccc3cccnc3c2n1 inactive

// outcome(item) with item = Nc1ccc(C2CCC[C@H]2c2ccc(N)cc2)cc1 (some centres not stated) inactive

// outcome(item) with item = CCCCCCCCC(=O)NCCN(CCN)C(=O)CCCCCCCC active

// outcome(item) with item = Cc1ccc(S(=O)(=O)Nc2ccc3c(c2)Cc2cc([N+](=O)[O-])ccc2-3)cc1 active

// outcome(item) with item = Cc1nc(N2N=C(c3ccc(Cl)cc3)CCC2=O)sc1[N+](=O)[O-] inactive

// outcome(item) with item = Cc1c2cc[n+](C)cc2c(C)c2c1sc1ccccc12 active

// outcome(item) with item = OCC(O)C(OC1OC(CO)C(O)C(O)C1O)C(O)C(/C=N/Nc1ccc(Br)cc1)=N/Nc1ccc(Br)cc1 (configuration not stated) active

// outcome(item) with item = COc1ccc(-c2cscc2N)cc1 active

// outcome(item) with item = CCCCCCCN=C(N)c1ccc(C(=O)OCc2ccccc2)cc1 active

// outcome(item) with item = Cc1cc(C)nc(/C=C/c2ccc(/C=C/c3cc(C)cc(C)n3)cc2)c1 inactive

// outcome(item) with item = O=Cc1cc(S(=O)(=O)c2ccc(O)c(C=O)c2)ccc1O active

* * *

Assay: NCI Yeast Anticancer Drug Screen. Data for the sgs1 mgt1 strain (AID 161);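 also: 0% = growth of cultures given vehicle only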
Conditions: S. cerevisiae sgs1 mgt1 strain, at 50.0 µM, active compounds read high
About 79,000 compounds went through this panel and 15% of them were active in at least one assay; those are over-represented in the sample as a whole.
Would you please tag the item yes when its growth inhibition is 30% or above, and no when it is below?

Solved entries:
Compound | Category Label
CC(/C=C/c1cccs1)=N\C(=S)NC(N)=S | no
O=S1(=O)CS(=O)(=O)OCCCO1 | no
CC1=NC(C)=C(/C(C)=N/NC(=O)c2ccccc2O)C(C)/C1=C(/C)NNC(=O)c1ccccc1O (stereo not drawn) | yes
[NH-]c1ccccc1[S-].[NH-]c1ccccc1[S-].[Zn] | yes
Cn1c2ccccc2c2nnc(N/N=C/c3ccccn3)nc21 | yes
CC(C)CCCCCCCCCCCCC(=O)NCC(=O)NC1C(C)OC(Nc2ncnc3nc[nH]c23)C(O)C1O (stereo not drawn) | yes
O=[N+]([O-])c1cc2cccnc2c2ncccc12 | yes

Here is the next item to consider.
Hi team, for COc1cc2c(cc1O)C1Cc3ccc(OC)c(O)c3C(C2)N1C (stereo not drawn) , is the recorded growth inhibition at or above 30%? no

* * *

Experiment: NCI Yeast Anticancer Drug Screen. Data for the cln2 rad14 strain (AID 165);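 also: 0% = growth equal to vehicle treated cultures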
Conditions: S. cerevisiae cln2 rad14 strain, at 5.0 µM (retest, dose inferred, filed as 0.5), active compounds read high
About 79,000 compounds went through this panel and 15% of them were active in at least one assay; those are over-represented in the sample as a whole.
Reported Metric: growth inhibition (%)
Unit % implied. Number only.

Example compounds with recorded growth inhibition:
Compound | Units Label | growth inhibition
COc1ccc(-c2c(C#N)c(-c3ccc(C)cc3)n(NS(=O)(=O)c3ccc(C)cc3)c(=O)c2C#N)cc1 | % | -5
O=C1Oc2ccccc2C1c1ccccc1 (stereo not drawn) | % | 10
CCc1ccccc1NC(=O)C1=C(C)NC(C)=C(C(=O)Nc2c(CC)cccc2CC)C1c1ccc2c(c1)OCO2 (stereo not drawn) | % | 15
c1ccc(NCCSc2nc3ccccc3s2)cc1 | % | -21
O=C(CNC(=O)c1ccccc1)Oc1c(Cl)c(Cl)c(Cl)c(Cl)c1Cl | % | 7
N#CSCc1ccc(CSC#N)c(Cl)c1 | % | 4
O=Nc1cc(-c2ccccc2)c2ccccc2c1O | % | 15
NCCCSc1ccc(Br)cc1 | % | 0

Which growth inhibition value belongs to COc1ccc(C(SCC(N)C(=O)O)(c2ccc(OC)cc2)c2ccc(OC)cc2)cc1 (stereo not drawn) ? -7

Which growth inhibition value belongs to CC(=O)N=C1N(/C=C2\C(=O)Oc3ccccc3C2=O)C(=O)/C(=C/c2ccco2)N1C ? -7

Which growth inhibition value belongs to CC(=O)Nc1ccc(C(=O)n2[nH]c(C)c(/C=C3\C(=O)C=Cc4ccccc43)c2=O)cc1 ? -10

Which growth inhibition value belongs to O=C(CNC(=O)c1ccccc1)NNc1ccccc1 ? 3

Which growth inhibition value belongs to CCCCCCC(=O)CC(SCCN)c1ccccc1Cl (stereo not drawn) ? 12

Which growth inhibition value belongs to CN(C)c1ccc(/C=C\c2c3ccccc3cc[n+]2[O-])cc1 ? -5

Which growth inhibition value belongs to Oc1c(Cl)cc(Br)cc1Cl ? 3

Which growth inhibition value belongs to Cn1c(N)c(N=Nc2ccc(S(N)(=O)=O)cc2)c(=O)n(C)c1=O ? 27

* * *

Assay: NCI Yeast Anticancer Drug Screen. Data for the mlh1 rad18 strain (AID 175)
Settings: S. cerevisiae mlh1 rad18 strain growth inhibition; at 50.0 µM (retest, dose inferred, filed as 5.0); active compounds read high
About 79,000 compounds went through this panel and 15% of them were active in at least one assay; those are over-represented in the sample as a whole.
Reported growth inhibition values for a set of compounds
Unit % implied. Number only.

Example compounds with recorded growth inhibition:
Compound | Units Label | growth inhibition
O=C1Nc2ccccc2/C1=N\N=c1/scc(-c2ccccc2)n1-c1ccccc1 | % | 78
Cc1cc(SC#N)cc(C)c1O | % | 81
O[C@H]1[C@H]2c3cc4c(cc3CN3CCC(=C[C@@H]1O)[C@H]23)OCO4 | % | 99
CC(=O)Nc1ccc2c(c1)[nH]c(=O)c1cc(Cl)ccc12 | % | 91
CCOP(=O)(C=C=C1CCC2[C@@H]3CCc4cc(OC)ccc4C3CC[C@]12C)OCC (stereo not given in full) | % | 98
COc1ccc(C(=O)Cc2nc3nnc(NC(=O)Nc4ccc(Cl)cc4)n3nc2CC(=O)c2ccc(OC)cc2)cc1 | % | 97
COCCN1C(=O)C2c3[nH]c4ccccc4c3C3CCC(C(C)(C)C)CC3C2C1=O (stereo not given) | % | 98
CCCCN(CCC=C1c2ccccc2Oc2ccccc21)CCCC | % | 99

Which growth inhibition value belongs to O=[N+]([O-])c1ccc2c(c1)OCO2 ? 5

Which growth inhibition value belongs to C=C1C(=O)OC2C/C(C)=C/CC/C(C)=C/CCC3(COC(C)=O)OC3CC12 (stereo not given) ? 98

Which growth inhibition value belongs to [N-]=[N+]=Nc1c(Cc2ccccc2)c(=O)oc2ccccc12 ? 82

* * *

Test: NCI Yeast Anticancer Drug Screen. Data for the sgs1 mgt1 strain (AID 161);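 also: 0% = growth of cultures given vehicle only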
Settings: S. cerevisiae sgs1 mgt1 strain, at 5.0 µM (retest, dose inferred, filed as 0.5), active compounds read high
This is part of a sample that, as a whole, favours compounds with a hit. Of some 79,000 tested, about 15% had one in any assay.
Reported growth inhibition values for a set of compounds
Unit % implied. Number only.

Compound | Units Label | growth inhibition
N#CC1C=C(Cl)c2ccc(Cl)cc2N1C(=O)c1ccccc1 (stereo not given) | % | 3
CC1CC(c2ccccc2)CC(C)N1c1ccc2ccccc2c1 (stereo not given) | % | 1
Clc1ccc2oc(N3CCCCC3)nc2c1 | % | 2
OC1(CCc2ccccc2)COC(C(F)(F)F)(C(F)(F)F)C1 (stereo not given) | % | 14
[Cl][Pt+2]([Cl])([Cl])[Cl].[NH-]CC1(C[NH-])CCCC1 | % | 62
C[CH2][Sn]([CH2]C)([O]C(=O)c1c(F)cccc1F)[O][Sn]([CH2]C)([CH2]C)[O]C(=O)c1c(F)cccc1F | % | 36
O=C1C=CC(=Nc2cc3c(cc2Br)-c2ccccc2C3Br)O1 (stereo not given) | % | 15
Cc1ccc2c(c1)C1(C)C=C(CN3CCN(C)CC3)C(=O)CC1O2 (stereo not given) | % | 22
CCNc1ccc2c(c1)Cc1ccccc1-2 | % | 62
Cc1cccc2cc3c(cc12)c(C)cc1ccccc13 | % | -4

Which growth inhibition value belongs to O=[N+]([O-])c1ccc2c(c1)OCO2 ? -2

Which growth inhibition value belongs to CCC(CC)COC(=O)c1ccc(O)c(O)c1 ? -2

Which growth inhibition value belongs to CCNC(=S)NNC(=S)NNc1ccccc1 ? 31

Which growth inhibition value belongs to Cc1ccccc1N1CCN(c2c3c(nc4ccccc24)CCCCC3)CC1 ? 7

Which growth inhibition value belongs to CC(=O)C(=Cc1ccc(C=C(C(C)=O)C(C)=O)cc1)C(C)=O ? 11

Which growth inhibition value belongs to CN(C)c1nc(NNS(=O)(=O)c2ccc(N)cc2)nc(N(C)C)n1 ? 1

Which growth inhibition value belongs to Cc1ccc(O)c(C(c2cccc(C(c3cc(C)ccc3O)c3cc(C)ccc3O)c2)c2cc(C)ccc2O)c1 ? 31

Which growth inhibition value belongs to COc1ccc2nc3cc([N+](=O)[O-])ccc3c(NNc3ccc([N+](=O)[O-])cc3)c2c1 ? 3

Which growth inhibition value belongs to C/C(=N\NC(=S)N(C)CCN(C)C(=S)N/N=C(\C)c1ccccn1)c1ccccn1 ? -3

Which growth inhibition value belongs to OC(CNc1ccnc2cc(Cl)ccc12)CNc1ccnc2cc(Cl)ccc12 ? 0
